assay: isobaric coefficient of expansion; settings: 348.15 K; 30000 kPa; Liquid; DSC
VALUE_KIND: isobaric coefficient of expansion

Look over these answered cases.
**Q:** Look up isobaric coefficient of expansion: CCCCCCCCCCCC [dodecane]
**A:** 0.000837 1/K

**Q:** Also need c1ccccc1 [benzene] , thanks.
**A:** 0.00108 1/K

**Q:** Also need CCCCCCCCCCCCC [tridecane] , thanks.
**A:** 0.000807 1/K

**Q:** Also need CCCCCCCCCCC [undecane] , thanks.
**A:** 0.000859 1/K

**Q:** Also need CCCCCCCCCCCCCCC [pentadecane] , thanks.
**A:** 0.000783 1/K

New cases:
**Q:** Look up isobaric coefficient of expansion: ClC(Cl)(Cl)Cl [tetrachloromethane]
**A:** 0.00109 1/K

**Q:** Also need CCCCCCCCCCCCCC [tetradecane] , thanks.
**A:** 0.000789 1/K

**Q:** Also need CCCCCCCCCC [decane] , thanks.
**A:** 0.000893 1/K

**Q:** Also need CCCCCCCCC [nonane] , thanks.
**A:** 0.000931 1/K

Origin of measurements: the NIST ThermoML archive (doi:10.1021/je900757k)
